System: THP-1 viability, CellTiter-Glo luminescence, 72 h
assay.procedure: PubChem AID 2252

[
  {
    "molecule": "Cc1oc2c(O)c(O)ccc2c(=O)c1-c1ccccc1",
    "system": "THP-1 viability, CellTiter-Glo luminescence, 72 h",
    "EC50": "24.9 µM"
  },
  {
    "molecule": "CN1C(=O)/C(=C/c2cccc(Cl)c2)Sc2ccc(C(=O)N3CCCC3)cc21",
    "system": "THP-1 viability, CellTiter-Glo luminescence, 72 h",
    "EC50": "21.1 µM"
  },
  {
    "molecule": "O=C(Nc1ccc(Cc2ccncc2)cc1)c1ccc([N+](=O)[O-])o1",
    "system": "THP-1 viability, CellTiter-Glo luminescence, 72 h",
    "EC50": "4.02 µM"
  },
  {
    "molecule": "Nc1nc(Nc2cccc(F)c2)nc2ccccc12",
    "system": "THP-1 viability, CellTiter-Glo luminescence, 72 h",
    "EC50": "8.85 µM"
  },
  {
    "molecule": "O=C(NCCCNc1ccnc2cc(Cl)ccc12)c1ccccc1F",
    "system": "THP-1 viability, CellTiter-Glo luminescence, 72 h",
    "EC50": "21.2 µM"
  },
  {
    "molecule": "COc1cc(CNCCc2c[nH]c3ccccc23)ccc1OCc1ccccc1F",
    "system": "THP-1 viability, CellTiter-Glo luminescence, 72 h",
    "EC50": "13.1 µM"
  },
  {
    "molecule": "CC(C(=O)NC1C=CS(=O)(=O)C1)N1C(=O)/C(=C/c2ccc(Cl)cc2)SC1=S (stereo unspecified)",
    "system": "THP-1 viability, CellTiter-Glo luminescence, 72 h",
    "EC50": "25.7 µM"
  },
  {
    "molecule": "CN1CCN(C(c2cccc(Cl)c2)c2ccccc2Cl)CC1 (stereo unspecified)",
    "system": "THP-1 viability, CellTiter-Glo luminescence, 72 h",
    "EC50": "35 µM"
  },
  {
    "molecule": "CCCOc1ccc(C(=O)NNC(=S)NC(=O)c2ccco2)cc1",
    "system": "THP-1 viability, CellTiter-Glo luminescence, 72 h",
    "EC50": "16.8 µM"
  },
  {
    "molecule": "CCCCOc1ccc(CN=C(N)N)cc1Cl",
    "system": "THP-1 viability, CellTiter-Glo luminescence, 72 h",
    "EC50": "10.1 µM"
  },
  {
    "molecule": "COc1cc(C(=O)O/N=C2\\C=CC(=O)C(C)=C2)cc(OC)c1OC",
    "system": "THP-1 viability, CellTiter-Glo luminescence, 72 h",
    "EC50": "7.36 µM"
  }
]
